target: CRM1 (Homo sapiens, UniProt O14980); test: Competition differential bleaching assay monitored by microscale thermophoresis instrument (MBP-NES vs FITC-PKI^NES); type: binding; settings: competition titration; MBP-NES 100 μM to 3 nM, 40 nM FITC-PKI^NES probe, 300 nM HsCRM1, 120 μM ScRan-GTP, mixed 1:1; TB buffer 15% glycerol, 0.05% Tween-20; 1.5 hr room temperature; triplicate titrations; brackets = 68.3% confidence interval; read-out: KD (dissociation constant of NES binding to CRM1)
Sequence (O14980 whole entry, other chains not shown): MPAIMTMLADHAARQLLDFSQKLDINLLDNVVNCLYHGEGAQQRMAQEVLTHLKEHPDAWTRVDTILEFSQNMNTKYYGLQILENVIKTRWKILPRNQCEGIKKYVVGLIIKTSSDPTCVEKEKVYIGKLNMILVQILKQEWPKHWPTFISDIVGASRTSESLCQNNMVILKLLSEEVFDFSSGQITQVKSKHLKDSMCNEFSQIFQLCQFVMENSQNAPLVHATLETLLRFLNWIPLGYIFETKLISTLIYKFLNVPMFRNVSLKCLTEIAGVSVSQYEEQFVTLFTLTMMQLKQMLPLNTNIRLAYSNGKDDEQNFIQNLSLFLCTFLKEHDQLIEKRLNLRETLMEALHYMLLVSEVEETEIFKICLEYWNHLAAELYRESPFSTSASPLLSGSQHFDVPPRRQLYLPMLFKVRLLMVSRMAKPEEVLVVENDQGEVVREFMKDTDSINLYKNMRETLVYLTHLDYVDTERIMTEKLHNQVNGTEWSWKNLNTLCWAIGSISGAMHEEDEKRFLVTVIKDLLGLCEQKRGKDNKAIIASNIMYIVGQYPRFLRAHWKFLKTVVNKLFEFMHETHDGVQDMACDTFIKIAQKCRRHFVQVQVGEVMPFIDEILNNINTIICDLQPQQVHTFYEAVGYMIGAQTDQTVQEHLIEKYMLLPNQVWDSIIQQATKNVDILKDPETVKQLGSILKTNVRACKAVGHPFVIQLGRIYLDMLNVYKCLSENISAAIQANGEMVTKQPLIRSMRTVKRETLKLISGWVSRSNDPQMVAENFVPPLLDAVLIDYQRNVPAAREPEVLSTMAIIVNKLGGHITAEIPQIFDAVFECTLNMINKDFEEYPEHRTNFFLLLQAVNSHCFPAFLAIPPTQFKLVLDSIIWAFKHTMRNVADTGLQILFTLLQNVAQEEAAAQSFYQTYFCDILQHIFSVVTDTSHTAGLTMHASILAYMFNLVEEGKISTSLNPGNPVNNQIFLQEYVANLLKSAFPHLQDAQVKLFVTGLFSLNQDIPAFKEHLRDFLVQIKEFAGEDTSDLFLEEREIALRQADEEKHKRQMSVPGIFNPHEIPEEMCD
Measured attribute: Kd (nM)

| Substance | Measured attribute | Unit tag | Number |
| --- | --- | --- | --- |
| GGSYGKIEELAQNFETMEFSR [hRio2^NES-R] | Kd | nM | 2400 |
| GGSY^379RTFDMHSLESSLIDI^393 [CPEB4^NES, nuclear export signal of CPEB4 (residues 379-393), tested as MBP- or GST-fusion] | Kd | nM | 590 |
| GGSYRMIDILSSELSHMDFTR [CPEB4^NES-R] | Kd | nM | 780 |
| GGSY^389RSFEMTEFNQALEEI^403 [hRio2^NES, nuclear export signal of hRio2 (residues 389-403), tested as MBP- or GST-fusion] | Kd | nM | 2200 |
